Numbers sourced from PubChem BioAssay.

Parameter: z-score. Scope: all listed entries.
# test-method-notes: modulators of S6 phosphorylation in cells, primary screen, cell-based, A549, cytoblot, luminescence, serum-stimulated (AID 1158);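 note: serum-stimulated A549 lung adenocarcinoma cells; signal is phosphorylated S6 detected by cytoblot immunostaining with HRP secondary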
# condition-notes: A549 phospho-S6 cytoblot, 5 h, higher = more signal

Would you please look over these solved cases?
CC(C)(C)OC(=O)CC[C@]1(C(=O)NCCN2CCOCC2)N=C(c2ccc(OCCCO)cc2)O[C@H]1c1ccccc1 ... -0.501
C=CC[C@H](OC(=O)Nc1ccc(OC)cc1)c1ccc(O)c2ccccc12 ... -0.93
COc1ccc([Si](C)(C)[C@@H]2[C@@H](CCn3cc([C@H](O)c4ccccc4)nn3)O[C@]3(C(=O)N(Cc4ccc(N5CCOC5=O)cc4)c4ccccc43)[C@H]2C)cc1 ... 0.0719

Form: compound = CC[C@@H]1[C@H]2C3C(=O)N(CC)C(=O)C3CC(=O)[C@H]2[C@H](c2ccc(C)cc2)N1S(=O)(=O)c1ccc(C)cc1 (some centres undefined) ; z-score = -0.12

----------
# test-system: Dickkopf-related protein 1 (Homo sapiens) (UniProt O94907)
# Sequence (O94907 whole entry, looked up): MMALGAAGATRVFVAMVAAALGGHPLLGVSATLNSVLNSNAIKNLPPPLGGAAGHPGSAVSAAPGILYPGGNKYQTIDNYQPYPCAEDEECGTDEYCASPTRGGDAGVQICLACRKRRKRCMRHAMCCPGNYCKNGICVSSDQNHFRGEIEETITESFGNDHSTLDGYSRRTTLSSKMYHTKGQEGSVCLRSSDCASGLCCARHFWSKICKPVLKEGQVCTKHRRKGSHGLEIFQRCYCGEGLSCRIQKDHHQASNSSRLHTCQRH
# test-method-notes: DKK1 binders on small-molecule microarrays, primary screen, biochemical, small-molecule microarray, 635 nm fluorescence scan (AID 1106);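 note: score merges emission near 667 nm with signal to noise over three replicate slides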
# condition-notes: DKK1 binding, higher = more signal
Each entry gets not met if its composite z-score stays under 0.2, and met if its composite z-score is 0.2 or above.

O=C(CS)NCCCCCCNC(=O)[C@@H]1C[C@@H]2C(=O)N3CCC[C@H]3C(=O)N2[C@@H]1c1cccc(OCCO)c1 ... met
C=C(C(=O)CC[C@H](OC(C)=O)c1cccc(OCCO)c1)C(C)C ... not met
COc1c(C)cc(-c2cc3c(c(-c4ccccc4)n2)[Si](C(C)C)(C(C)C)OC3)cc1C ... not met
O=C1NC(=O)C2C1C=CC(C(O)c1c(F)cccc1Cl)N2Nc1ccccn1 (configuration not stated) ... met
C=CCN1C(=O)[C@@]2(O[C@@H](CCn3cc([C@H](O)c4ccccc4)nn3)[C@H]([Si](C)(C)c3ccc(OC)cc3)[C@H]2C)c2ccccc21 ... met

Quick check: does O=C(O)[C@]1(Cc2ccccc2)N=C(c2ccc(OCCCO)cc2)O[C@@H]1c1ccccc1 have composite z-score greater than or equal to 0.2? not met

Is it the case that COc1cc2c(cc1OC)CN(C(=O)[C@H]1[C@@H]3C(=O)O[C@@H](c4ccccc4)[C@@H](c4ccccc4)N3[C@@H](c3ccc(OCCO)cc3)[C@]13C(=O)Nc1ccc(C#CC4(O)CCCCCC4)cc13)CC2 has composite z-score reaching or exceeding 0.2? met

----------
# test-method-notes: E. coli growth modulation, two-sided OD650, primary screen, E. coli filamentation project, strain DRC41, 24 h (AID 1093);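 note: MC1000 strain lacking acrAB efflux and sulA so SOS filamentation is blocked; test concentration not given here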
# condition-notes: OD650, 24 h, higher = more signal, called active from +8 up or from −8 down
We use -0.3 as the dividing line for z-score: on or above the line is condition met, below is condition not met.

[N-]=[N+]=Nc1ccccc1C[C@]1(C(=O)NCc2ccccc2)N=C(c2ccc(OCCCO)cc2)O[C@H]1c1ccccc1 ... condition met

Is reported z-score greater than or equal to -0.3 here: CCCNC(=O)[C@@]1(c2ccc([N+](=O)[O-])cc2)CC(=O)N(C2CCCCC2)[C@@H]1c1ccc(CO)cc1I condition met

Reported z-score at or above -0.3? CCCCC(=C=CC[C@@H](O)c1ccc(OCCO)cc1)C[C@@H](O)COCc1ccccc1 condition met

Does the reported z-score for COC(=O)[C@]1(CCS(=O)(=O)c2ccccc2)N=C(c2ccc(OCCCO)cc2)O[C@@H]1c1ccccc1CN=[N+]=[N-] fall at or above the -0.3 mark? condition not met
